Exercise: for every item that follows, state its recorded shrunken log2 fold change.
System: Escherichia coli TOP10
Experiment: shrunken log2 fold change of peptide-encoding DNA abundance (4.5 h post-induction vs induction); higher = less antimicrobial activity (less host growth inhibition)
Conditions: time post-induction: 4.5 h; library: site-saturation at positions 5, 18, 19, 20
Number only, please.

Bench note: what shrunken log2 fold change did RRIRRRPPRLPRPRPRPPPAPRP show?
1.28

Bench note: what shrunken log2 fold change did RRIRERPPRLPRPRPRPMNKPRP show?
-0.765

Bench note: what shrunken log2 fold change did RRIRNRPPRLPRPRPRPRSGPRP show?
-0.0312

Bench note: what shrunken log2 fold change did RRIRLRPPRLPRPRPRPPIVPRP show?
-0.531

---

Tested on: Escherichia coli TOP10
Assay: shrunken log2 fold change of peptide-encoding DNA abundance (4.5 h post-induction vs induction); higher = less antimicrobial activity (less host growth inhibition)
Conditions: time post-induction: 4.5 h; library: site-saturation at positions 5, 18, 19, 20
Exercise: for every item that follows, state its recorded shrunken log2 fold change.
Number only, please.

Bench note: what shrunken log2 fold change did RRIRDRPPRLPRPRPRPCFRPRP show?
-0.157

Bench note: what shrunken log2 fold change did RRIRMRPPRLPRPRPRPEPHPRP show?
1.43

Bench note: what shrunken log2 fold change did RRIRYRPPRLPRPRPRPESQPRP show?
-0.0411

Bench note: what shrunken log2 fold change did RRIRERPPRLPRPRPRPDIQPRP show?
3.69

Bench note: what shrunken log2 fold change did RRIRYRPPRLPRPRPRPPDRPRP show?
0.118

Bench note: what shrunken log2 fold change did RRIRMRPPRLPRPRPRPNWCPRP show?
0.0361

Bench note: what shrunken log2 fold change did RRIRGRPPRLPRPRPRPIHQPRP show?
-0.0704

Bench note: what shrunken log2 fold change did RRIRMRPPRLPRPRPRPNKMPRP show?
-0.134

Bench note: what shrunken log2 fold change did RRIRYRPPRLPRPRPRPYWLPRP show?
-1.14

Bench note: what shrunken log2 fold change did RRIRVRPPRLPRPRPRPFEWPRP show?
-0.102

Bench note: what shrunken log2 fold change did RRIRQRPPRLPRPRPRPATWPRP show?
0.343

Bench note: what shrunken log2 fold change did RRIRQRPPRLPRPRPRPMPLPRP show?
-0.00134

---

Tested on: Escherichia coli TOP10;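 also: peptides expressed intracellularly from a pBAD plasmid library in pooled LB shake-flask culture, induced with 0.3% L-arabinose, DNA abundance read by NGS, three biological replicates, DESeq2 with apeglm shrinkage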
Assay: shrunken log2 fold change of peptide-encoding DNA abundance (4.5 h post-induction vs induction); higher = less antimicrobial activity (less host growth inhibition)
Conditions: time post-induction: 4.5 h; library: site-saturation at positions 5, 18, 19, 20
Exercise: for every item that follows, state its recorded shrunken log2 fold change.

Bench note: what shrunken log2 fold change did RRIRVRPPRLPRPRPRPDKTPRP show?
-0.0309

Bench note: what shrunken log2 fold change did RRIRDRPPRLPRPRPRPMNWPRP show?
0.0175

Bench note: what shrunken log2 fold change did RRIRRRPPRLPRPRPRPSEMPRP show?
0.0772

Bench note: what shrunken log2 fold change did RRIRLRPPRLPRPRPRPTDLPRP show?
-0.0813

Bench note: what shrunken log2 fold change did RRIRLRPPRLPRPRPRPEHKPRP show?
-0.0822

Bench note: what shrunken log2 fold change did RRIRLRPPRLPRPRPRPEKVPRP show?
-0.0389

Bench note: what shrunken log2 fold change did RRIRSRPPRLPRPRPRPDEAPRP show?
-0.104

Bench note: what shrunken log2 fold change did RRIRRRPPRLPRPRPRPWQYPRP show?
0.0419
